src = PubChem BioAssay AID2842

assay overview: Mycobacterium tuberculosis H37Rv growth inhibition, putative kinase inhibitor library, confirmatory dose response (AID 2842);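 further: bacteria incubated one week before Alamar blue readout; 0% = bacteria only wells and 100% = bacteria with high antibiotic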
experimental conditions: M. tuberculosis H37Rv growth inhibition; active compounds read high
Hit rate of the full screen: of about 24,000 compounds, about 1,200 (5%) were called active. Another 2% or so got no clear call; they are omitted. The list is a sample of the results.
property label: inhibition (%)
Field: numeric (%). Do not append units.

COc1ccc(Cl)cc1NC(=O)CSc1nnc(CCC(=O)O)c(=O)n1N
-10.7
Fc1ccc2nc(Nc3nnc(-c4cccs4)o3)sc2c1
36
CCOC(=O)N1CCN(C(c2cccnc2)c2c(O)cc(C)n(CCOC)c2=O)CC1 (stereo unspecified)
0.85
CC1CCCCN1c1ncnc(N)c1[N+](=O)[O-] (stereo unspecified)
1.66
CC(C)c1ccc(OCC(=O)N/N=C/c2ccco2)cc1
6.99

stdin: Can you look up the measured inhibition of Cc1ccc(-c2csc(Nc3ccc(O)c(C(=O)O)c3)n2)cc1 for me?
stdout: -6.04

stdin: Can you look up the measured inhibition of Cc1cccc(-c2nnn3c2nc(NCCc2ccc(S(N)(=O)=O)cc2)c2ccccc23)c1 for me?
stdout: -2.93

stdin: Can you look up the measured inhibition of COc1ccc(OC)c(NC(=O)c2cnc3n(c2=O)CCS3)c1 for me?
stdout: 10.9

stdin: Can you look up the measured inhibition of COc1ccccc1NC(=O)c1oc2ccccc2c1NC(=O)c1ccc(Cl)c([N+](=O)[O-])c1 for me?
stdout: 3.99

stdin: Can you look up the measured inhibition of COc1ccc(CCNC(=O)C(=O)NCC(c2ccco2)N2CCc3ccccc32)cc1 (stereo unspecified) for me?
stdout: -2.72

stdin: Can you look up the measured inhibition of CC1Cc2nc(SCc3ccccn3)n(-c3ccc(F)cc3)c(=O)c2S1 (stereo unspecified) for me?
stdout: 20

----------
Here, each record is paired with measured inhibition data.
assay overview: Mycobacterium tuberculosis H37Rv growth inhibition, putative kinase inhibitor library, confirmatory dose response (AID 2842)
experimental conditions: M. tuberculosis H37Rv growth inhibition; active compounds read high
The whole screen tested about 24,000 compounds, of which about 1,200 (5%) were called active. About 2% were inconclusive and are not listed. Only a sample is shown.
Field: numeric (%). Do not append units.

Worked set:
O=C(NCc1ccc2[nH]c3c(c2c1)CCCC3)Nc1ccccc1
62.6
CC(=O)Nc1ccc(NC(=O)NC2CC(=O)N(c3ccc(C)cc3)C2)cc1 (stereo not given)
-0.32
O=C(Nc1nnc(-c2ccc(F)cc2)s1)c1ccccc1
8.84
CCn1c2c(c(=O)[nH]c1=O)C(c1ccc(O)cc1)C1=C(CC(C)(C)CC1=O)N2 (stereo not given)
-10.5
Cc1ccc(NC(=O)c2cnc(SCC(=O)N3CCOCC3)n(C)c2=O)cc1
11.1

stdin: Can you look up the measured inhibition of O=C(Nc1ccc(F)cc1)c1cn(Cc2ccccc2)cc2c(=O)n(-c3ccccc3)nc1-2 for me?
stdout: -8.1

stdin: Can you look up the measured inhibition of COc1ccc(C(=O)c2cn(CC(=O)Nc3ccc(F)cc3)c3ccc(F)cc3c2=O)cc1 for me?
stdout: 9.54

stdin: Can you look up the measured inhibition of C=CCn1c(=O)c2c(nc(N/N=C/c3ccccc3O)n2C)n(C)c1=O for me?
stdout: 69.7

stdin: Can you look up the measured inhibition of CC1CCc2c(sc(NC(=O)c3ccc(-c4nc5ccccc5s4)s3)c2C#N)C1 (stereo not given) for me?
stdout: 2.71

stdin: Can you look up the measured inhibition of Nc1nc(SCC(=O)N2CCCCCC2)[nH]c(=O)c1NC(=O)c1ccco1 for me?
stdout: -18.5

----------
assay overview: Mycobacterium tuberculosis H37Rv growth inhibition, putative kinase inhibitor library, confirmatory dose response (AID 2842);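 further: bacteria incubated one week before Alamar blue readout; 0% = bacteria only wells and 100% = bacteria with high antibiotic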
experimental conditions: M. tuberculosis H37Rv growth inhibition; active compounds read high
Screen size: about 24,000 compounds; about 1,200 (5%) were called active. Inconclusive results (about 2%) are left out. These entries were drawn from the full list.
property label: inhibition (%)
Field: numeric (%). Do not append units.

stdin: Can you look up the measured inhibition of CCN1CCN(c2nc(Nc3ccc(OC)cc3)c3nccnc3n2)CC1 for me?
stdout: -0.8

stdin: Can you look up the measured inhibition of COC(=O)c1sc2nc(N)c(C#N)c(-c3ccco3)c2c1N for me?
stdout: -11.1

stdin: Can you look up the measured inhibition of O=c1cnnc(N/N=C/c2ccc(O)cc2O)[nH]1 for me?
stdout: 45.3

----------
assay overview: Mycobacterium tuberculosis H37Rv growth inhibition, putative kinase inhibitor library, confirmatory dose response (AID 2842);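 further: bacteria incubated one week before Alamar blue readout; 0% = bacteria only wells and 100% = bacteria with high antibiotic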
experimental conditions: M. tuberculosis H37Rv growth inhibition; active compounds read high
In all, about 24,000 compounds went through this assay and about 1,200 (5%) were called active. Another 2% or so got no clear call; they are omitted. Only a sample is shown.
Here, each record is paired with measured inhibition data.
Field: numeric (%). Do not append units.

Worked set:
Cc1cccc(-n2ccnc2SCC(=O)Nc2nc3ccccc3s2)c1C
4.43
CC1CCc2c(sc(NC(=O)c3ccc4ccccc4c3)c2C#N)C1 (centres undefined)
1.23

stdin: Can you look up the measured inhibition of COc1ccc(Nc2ncnc(N)c2[N+](=O)[O-])c(OC)c1 for me?
stdout: 0.53

stdin: Can you look up the measured inhibition of COc1ccc(/C=C2\SC(=S)N(CCC(=O)Nc3nccs3)C2=O)cc1OC for me?
stdout: -4.88

stdin: Can you look up the measured inhibition of Cn1c(=O)c2c(SCC(=O)Nc3nc4ccccc4s3)nc(-c3ccc(F)cc3)nc2n(C)c1=O for me?
stdout: 14.6

stdin: Can you look up the measured inhibition of CCOc1cccc(/C=N\NC(=O)Cn2cnc3ccccc32)c1O for me?
stdout: -6.32

stdin: Can you look up the measured inhibition of Cc1ccc(C(=O)Nc2cc(C)c3c(=O)oc4ccccc4c3n2)cc1[N+](=O)[O-] for me?
stdout: -2.97

stdin: Can you look up the measured inhibition of COc1cc(OC)cc(C(=O)NCCc2cc3ccc(C)cc3[nH]c2=O)c1 for me?
stdout: -10.9

stdin: Can you look up the measured inhibition of COc1ccc(CC(=O)NCCc2cc3ccc(C)cc3[nH]c2=O)cc1OC for me?
stdout: 11.1

stdin: Can you look up the measured inhibition of CC1(C)COc2ccc(NC(=O)Cc3cccs3)cc2NC1=O for me?
stdout: 6.11

stdin: Can you look up the measured inhibition of O=C(O)c1cc(-c2ccc(F)cc2)nc2ccccc12 for me?
stdout: -3.79

stdin: Can you look up the measured inhibition of CC(C)N1CCc2c(sc(NC(=O)c3ccccc3Oc3ccccc3)c2C(N)=O)C1 for me?
stdout: 81.6

stdin: Can you look up the measured inhibition of CCOC(=O)c1nn(-c2ccc(F)cc2)c(=O)c2c(NC(=O)C(CC)c3ccccc3)scc12 (centres undefined) for me?
stdout: -11.7

stdin: Can you look up the measured inhibition of COC(=O)c1c(NC(=O)c2ccccc2)sc2c1CC(C)(C)NC2(C)C for me?
stdout: 16.8

stdin: Can you look up the measured inhibition of O=C(Nc1nc(-c2ccc(Cl)cc2Cl)cs1)c1ccc2c(c1)OCCO2 for me?
stdout: 0.34

stdin: Can you look up the measured inhibition of O=C1NCCc2c(OCC(=O)N3CCCC3)cccc21 for me?
stdout: -13.2

stdin: Can you look up the measured inhibition of CSc1ccc2nc(Nc3ccc(F)cc3F)sc2c1 for me?
stdout: 8.52

stdin: Can you look up the measured inhibition of CCS(=O)(=O)c1ccccc1C(=O)Nc1sc2c(c1C(N)=O)CCC(C)C2 (centres undefined) for me?
stdout: -17.6

----------
assay overview: Mycobacterium tuberculosis H37Rv growth inhibition, putative kinase inhibitor library, confirmatory dose response (AID 2842);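 further: bacteria incubated one week before Alamar blue readout; 0% = bacteria only wells and 100% = bacteria with high antibiotic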
experimental conditions: M. tuberculosis H37Rv growth inhibition; active compounds read high
The campaign covered roughly 24,000 compounds. About 1,200 (5%) were called active. Another 2% or so got no clear call; they are omitted. Not all results are given here.
property label: inhibition (%)
Field: numeric (%). Do not append units.

Cc1cc(OC(=O)C23CC4CC(CC(C4)C2)C3)c([N+](=O)[O-])c(=O)[nH]1
2.01

stdin: Can you look up the measured inhibition of CC1CCCN(S(=O)(=O)c2ccc(C(=O)Nc3nc4ccc5ccccc5c4s3)cc2)C1 (stereo not given) for me?
stdout: 14.8

stdin: Can you look up the measured inhibition of CSc1ccc2nc(Nc3cc(C)ccc3C)sc2c1 for me?
stdout: 13.8

stdin: Can you look up the measured inhibition of Cc1ccc(CSc2nc3c([nH]2)c(=O)n(C)c(=O)n3C)cc1 for me?
stdout: 6.64

stdin: Can you look up the measured inhibition of O=C(Nc1nc(-c2ccc3c(c2)OCCO3)cs1)c1cccc(Cl)c1 for me?
stdout: -0.85

stdin: Can you look up the measured inhibition of O=C(CSc1nc2c(c(=O)n1-c1ccc(Cl)cc1)SCC2)Nc1ccc2c(c1)OCO2 for me?
stdout: -11.7

stdin: Can you look up the measured inhibition of COc1ccc(Cl)cc1C(=O)Nc1nnc(-c2ccc(Cl)cc2Cl)s1 for me?
stdout: 0.42

stdin: Can you look up the measured inhibition of NC(=O)c1nc(-c2cccnc2)nc2c1[nH]c(=O)n2-c1ccc(Cl)c(Cl)c1 for me?
stdout: 5.29

stdin: Can you look up the measured inhibition of Cc1ccccc1NC(=O)Cc1csc(NS(=O)(=O)c2ccc(Cl)cc2)n1 for me?
stdout: -5.2

stdin: Can you look up the measured inhibition of COc1cc(CN2CCNC(=O)C2CC(=O)O)cc(OC)c1 (stereo not given) for me?
stdout: -0.59
